assayed.system: T1, Human B7-H3 extracellular domain (NCBI Reference Sequence: NM_025240.2) (human, UniProt Q5ZPR3 29-466)
T1 chain: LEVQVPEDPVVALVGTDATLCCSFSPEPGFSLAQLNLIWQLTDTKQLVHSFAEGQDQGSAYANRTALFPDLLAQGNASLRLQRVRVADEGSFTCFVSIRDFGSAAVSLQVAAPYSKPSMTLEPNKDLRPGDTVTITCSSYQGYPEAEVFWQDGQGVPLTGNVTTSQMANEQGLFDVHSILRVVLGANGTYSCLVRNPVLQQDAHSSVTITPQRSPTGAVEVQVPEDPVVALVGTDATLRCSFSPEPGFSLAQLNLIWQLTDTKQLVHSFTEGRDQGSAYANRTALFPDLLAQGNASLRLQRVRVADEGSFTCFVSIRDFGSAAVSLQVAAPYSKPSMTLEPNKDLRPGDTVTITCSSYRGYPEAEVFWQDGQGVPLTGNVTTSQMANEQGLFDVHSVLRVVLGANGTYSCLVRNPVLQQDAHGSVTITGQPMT
measurement.description: SPR, Biacore 8K, antibody captured through Fc, B7-H3 ECD as analyte
Label criterion met when kon is at or above 300000 M⁻¹ s⁻¹; anything below gets criterion not met.

#27-22 (VH2-2-VL2-2) (antibody, IgG1, V domains shown, Humanized antibody from murine #27; also called #27-VH2-2/VL2-2) VH: QVQLVQSGAEVVKPGASVKVSCKASGYTFTNYWMHWVKQAPGQGLEWIGMIHPNSGAFNYNERFKTRVTITVDKSTSTAYMELSSLRSEDTAVYYCARSTALATGYWGQGTLLTVSS VL: DIQLTQSPSFLSASVGDRVTMTCSASSSVSYMYWYQQKPGKSPKLLIYDTSNLASGVPSRFSGSGSGTEYTLTISSLQPEDFVTYYCQQWSSYPLTFGQGTKLEIK; criterion not met
#23-5424 (VH5-4-VL2-4) (antibody, IgG1, V domains shown, Humanized antibody from murine #23; also called #23-VH5-4/VL2-4) VH: QVQLVQSGAEVKKPGESLKISCKASGYNFNNYWMHWVRQRPGKGLEWIGMIHPNSGTFNYNERFKRKATLTVDKSISTAYLQWSSLKAEDTAMYYCAKSTALATDYWGQGTLVTVSS VL: QIVLTQSPSTLSASVGDRVTMTCSASSSVSYMYWYQQKPGKAPKLLIYDTSNLASGVPIRFSGSGSGTSYTLTISSMQPDDFVTYYCQQWSSYPLTFGQGTKLEIK; criterion not met
#23-5423 (VH5-4-VL2-3) (antibody, IgG1, V domains shown, Humanized antibody from murine #23) VH: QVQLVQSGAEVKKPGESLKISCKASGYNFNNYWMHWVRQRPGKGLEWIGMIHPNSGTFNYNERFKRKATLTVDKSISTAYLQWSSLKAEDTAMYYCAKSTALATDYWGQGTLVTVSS VL: QIVLTQSPSTLSASVGDRVTITCSASSSVSYMYWYQQKPGKAPKLLIYDTSNLASGVPIRFSGSGSGTSYTLTISSLQPDDFATYYCQQWSSYPLTFGQGTKLEIK; criterion met
